Biological target: human CD28 (human, UniProt P10747 19-220, On cells CD28 is a disulfide linked homodimer and a glycoprotein; one copy of the chain is given.)
Sequence (P10747 19-220 limits assumed): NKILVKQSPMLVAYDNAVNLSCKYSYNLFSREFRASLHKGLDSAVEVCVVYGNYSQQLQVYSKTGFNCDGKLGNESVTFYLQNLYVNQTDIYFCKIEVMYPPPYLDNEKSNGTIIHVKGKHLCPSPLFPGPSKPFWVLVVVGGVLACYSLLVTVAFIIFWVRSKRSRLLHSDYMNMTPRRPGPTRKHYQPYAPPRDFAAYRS
Experiment: cell-based or functional assay
Quantity measured: Division Index (with anti-CD3 UCHT1)
Answer with a bare number; do not write a unit.

Worked cases, answers included:
Q: Recorded Division Index (with anti-CD3 UCHT1) of exemplary anti-CD28 antibody AB8 (antibody, V domains shown, Mouse hybridoma monoclonal antibody; Conjugated to PE in the staining assays; also called antibody 8; clone 8) VH: EVKLVESGGGLVQPGGSLKLSCAASGFTFSSYTMSWVRQTPEKRLEWVAYISNGGGTTYYPDTVKGRFTISRDNAKNTLYLQMSSLKSEDTAVYYCARHRPYDYDVLDYWGQGTTLTVSS VL: DIVMTQSQKFMSTSVGDRVSITCKASQIVGTDVAWYQQKPGQSPKILIFSASNRYTGVPDRFTGSGSGTDFTLTISNMQSEDLADYFCHQYSRYPYTFGGGTKLEIK , please.
A: 0.76

Q: Return reported Division Index (with anti-CD3 UCHT1); argument: exemplary anti-CD28 antibody AB3 (antibody, V domains shown, Mouse hybridoma monoclonal antibody; Conjugated to PE in the staining assays; also called antibody 3; clone 3) VH: KVQLQQSGAGLVKPGASVKLSCKTSGYTFSDYIINWVKQRSGQGLEWIGWFYPGSGSINYNEKFKDKATLTADKSSSTVYMDLSRLTSEDSAVYFCARREDRGGYDAFDYWGQGTTLTVSS VL: DIQMTQSPASLSVSVGETVTITCRASENIYSNLAWYQQKQGKSPQLLVYAATKLADGVPSRFSGSGSGTQYSLRINSLQSEDFGSYYCQHFWGTPWTFGGGTKLEIK
A: 1.08

Then this binder:
Q: Query: Division Index (with anti-CD3 UCHT1); subject: exemplary anti-CD28 antibody AB1 (antibody, V domains shown, Mouse hybridoma monoclonal antibody; also called antibody 1; clone 1) VH: QVHLQQSATELARPGASVKMSCKASGYTFTSYTMHWVKQRPGQGLEWIGYIDPGSGYSEFNHKFKDKSTLTADKSSSTAYMQLISLTSEDSAVYYCARRQDNSGYDSFDYWGQGTTLTVSS VL: DIQMTQSPASLSVSVGETVTITCRTSENIYSNLAWYQQKQGKSPQLLVYAATNLADGVSSRFSGSGSGIQYSLKINSLQSEDFGSYYCQHFWGIPWTFGGGTKLEIK
A: 0.8
